Reported DC50 values are given for each entry in this list.
- ASSAYED_TARGET: RET(KD: 658-1114 G810R) (Homo sapiens, UniProt P07949, G810R)
- Construct: 658-1114; expressed in transfected cells; host or cells: 293T.165 (293T cells, generated in-house)
- Sequence (P07949 658-1114 G810R): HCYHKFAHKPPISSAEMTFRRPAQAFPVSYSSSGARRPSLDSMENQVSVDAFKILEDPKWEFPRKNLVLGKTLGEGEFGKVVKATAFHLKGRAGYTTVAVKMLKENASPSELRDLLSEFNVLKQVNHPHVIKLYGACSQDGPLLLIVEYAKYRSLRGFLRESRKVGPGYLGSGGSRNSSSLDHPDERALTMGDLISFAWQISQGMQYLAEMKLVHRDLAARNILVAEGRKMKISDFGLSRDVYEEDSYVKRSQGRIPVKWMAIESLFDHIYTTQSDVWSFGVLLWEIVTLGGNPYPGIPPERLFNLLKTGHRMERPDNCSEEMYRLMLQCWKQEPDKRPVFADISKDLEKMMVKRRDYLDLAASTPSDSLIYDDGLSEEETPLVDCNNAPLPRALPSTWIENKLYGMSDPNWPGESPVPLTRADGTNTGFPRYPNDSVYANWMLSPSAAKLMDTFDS
- TEST_NAME: HiBiT-Degradation, RET G810R degradation assay (Nano-Glo HiBiT Lytic), 293T.165 cells
- Format: cell-based
- RUN_PARAMETERS: RET G810R, 6.0 hours, read-out: HiBiT-Degradation 293T.165 RET(KD: 658-1114 G810R) 6.0 hours (DC50)

COMPOUND	DC50
COCC1(Cc2ccccn2)CCN(c2ccc(-c3nc(-c4cnn(C5CCN(C(=O)CN6CCC(c7ccc(NC8CCC(=O)NC8=O)cc7F)CC6)CC5)c4)cn4ncc(C#N)c34)cn2)CC1 (stereo not shown)	< 100 nM
CCC1(C(=O)NC2CCC2)CCN(c2ccc(-c3nc(-c4cnn(C5CCN(C(=O)CC6(O)CCN(c7ccc(NC8CCC(=O)NC8=O)cc7F)CC6)CC5)c4)cn4ncc(C#N)c34)cn2)CC1 (stereo not shown)	< 50 nM
CCC1(C(=O)NC(C)C)CCN(c2ccc(-c3nc(-c4cnn(C5CCN(C(=O)CC6(O)CCN(c7ccc(N[C@@H]8CCC(=O)NC8=O)cc7F)CC6)CC5)c4)cn4ncc(C#N)c34)cn2)CC1 (single isomer, unassigned)	< 50 nM
CN(Cc1ccc(-c2cn3ncc(C#N)c3c(-c3ccc(N4CCN(Cc5ccccn5)CC4)nc3)n2)cc1)C(=O)CN1CCC(c2ccc(NC3CCC(=O)NC3=O)cc2)CC1 (stereo not shown)	< 100 nM
CC(C)NC(=O)C1(C)CCN(c2ccc(-c3cc(-c4cnn([C@H]5CC[C@H](CCN6CCC(c7ccc8c(N9CCC(=O)NC9=O)nn(C)c8c7)CC6)CC5)c4)cn4ncc(C#N)c34)cn2)CC1	< 100 nM
CC(C)NC(=O)C1(C)CCN(c2ccc(-c3cc(-c4cnn(CCCCCCN5CCC(c6ccc7c(N8CCC(=O)NC8=O)nn(C)c7c6)CC5)c4)cn4ncc(C#N)c34)cn2)CC1	< 100 nM
CCC1(C(=O)NC(C)C)CCN(c2ccc(-c3nc(-c4cnn(C5CCN(C(=O)CC6(O)CCN(c7ccc(NC8CCC(=O)NC8=O)c(F)c7)CC6)CC5)c4)cn4ncc(C#N)c34)cn2)CC1 (stereo not shown)	< 100 nM
N#Cc1cnn2cc(-c3ccc(N4CCN(C(=O)CN5CCC(c6ccc(NC7CCC(=O)NC7=O)cc6F)CC5)CC4)nc3)cc(-c3ccc(N4CCN(Cc5ccccn5)CC4)nc3)c12 (stereo not shown)	< 100 nM
CCC1(C(=O)NC(C)C)CCN(c2ccc(-c3cc(-c4cnn([C@H]5CC[C@@H](N6CCC(c7ccc(NC8CCC(=O)NC8=O)cc7F)CC6)CC5)c4)cn4ncc(C#N)c34)cn2)CC1 (stereo partly shown)	< 1000 nM
N#Cc1cnn2cc(-c3cnn(C4CCN(C(=O)NC5CCN(c6ccc(NC7CCC(=O)NC7=O)cc6F)CC5)CC4)c3)cc(-c3ccc(N4CCN(Cc5ccccn5)CC4)nc3)c12 (stereo not shown)	< 100 nM
CCC1(C(=O)NC(C)C)CCN(c2ccc(-c3nc(-c4cnn(CC5CCN(C(=O)CC6(O)CCN(c7ccc(NC8CCC(=O)NC8=O)cc7F)CC6)CC5)c4)cn4ncc(C#N)c34)cn2)CC1 (stereo not shown)	< 100 nM
N#Cc1cnn2cc(-c3ccc(N4CCN(C(=O)CN5CCC(c6ccc(NC7CCC(=O)NC7=O)cc6)CC5)CC4)cc3)cc(-c3ccc(N4CCN(C(=O)Cc5ccc(F)cn5)CC4)nc3)c12 (stereo not shown)	< 50 nM
N#Cc1cnn2cc(-c3cnn(C4CCN(C(=O)CN5CCC(c6ccc(NC7CCC(=O)NC7=O)cc6F)CC5)CC4)c3)nc(-c3ccc(N4CCC(Cc5ccccn5)CC4)nc3)c12 (stereo not shown)	< 50 nM
N#Cc1cnn2cc(-c3cnn(C4CCN(C(=O)CN5CCC(c6ccc(NC7CCC(=O)NC7=O)cc6F)CC5)CC4)c3)cc(-c3ccc(N4CC5CC(C4)N5Cc4ccccn4)nc3)c12 (stereo not shown)	< 50 nM
N#Cc1cnn2cc(-c3cnn(C4CC5(C4)CN(C(=O)CN4CCC(c6ccc(NC7CCC(=O)NC7=O)cc6F)CC4)C5)c3)cc(-c3ccc(N4CCN(Cc5ccccn5)CC4)nc3)c12 (stereo not shown)	< 100 nM
CCC1(C(=O)NC(C)C)CCN(c2ccc(-c3nc(-c4cnn(C5CCN(C(=O)CC6(O)CCN(c7ccc(NC8CCC(=O)NC8=O)cc7)CC6)CC5)c4)cn4ncc(C#N)c34)cn2)CC1 (stereo not shown)	< 100 nM
COc1ccnc(CN2C3CC2CN(c2ccc(-c4cc(-c5cnn(C6CCN(C(=O)CN7CCC(c8ccc(NC9CCC(=O)NC9=O)cc8F)CC7)CC6)c5)cn5ncc(C#N)c45)cn2)C3)c1 (stereo not shown)	< 100 nM
CCC1(C(=O)NC(C)C)CCN(c2ccc(-c3nc(-c4cnn(C5CCN(C(=O)CC6(O)CCN(c7ccc(N[C@H]8CCC(=O)NC8=O)cc7F)CC6)CC5)c4)cn4ncc(C#N)c34)cn2)CC1 (single isomer, unassigned)	< 50 nM
N#Cc1cnn2cc(-c3cnn(C4CCN(C(=O)CN5CCC(c6ccc(NC7CCC(=O)NC7=O)cc6F)CC5)CC4)c3)cc(-c3ccc(N4CC5CC(C4)N5Cc4cccnc4)nc3)c12 (stereo not shown)	< 50 nM
